assayed-system: GDP-bound KRAS wild-type protein (Homo sapiens, UniProt P01116)
Sequence (P01116 whole entry): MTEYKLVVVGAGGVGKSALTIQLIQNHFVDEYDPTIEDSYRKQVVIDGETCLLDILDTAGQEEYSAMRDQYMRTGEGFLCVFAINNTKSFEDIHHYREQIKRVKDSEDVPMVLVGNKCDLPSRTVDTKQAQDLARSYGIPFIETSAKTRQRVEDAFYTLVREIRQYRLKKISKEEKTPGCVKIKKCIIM
measurement-notes: Binding to KRAS by surface plasmon resonance (SPR), Single Cycle Kinetics
condition-summary: SPR, Single Cycle Kinetics, GDP-bound KRAS wild-type protein; read-out: KRAS KD
pKd values by entry
Note on units: pKd is unitless, being -log10 of a concentration expressed in mol/L.

Entry CC[C@H](C)[C@@H]1NC(=O)[C@H](COC)N(C)C(=O)C[C@@H](C(=O)N(C)C)N(C)C(=O)[C@H](C2CCCC2)N(C)C(=O)C2(CC(C)(C)C2)NC(=O)[C@@H]2C[C@H](C)CN2C(=O)[C@H](CCc2ccc(C(F)(F)F)c(OC)c2)NC(=O)CN(C)C(=O)[C@H](Cc2ccc(C)cc2)N2CC/C=C\C[C@@H](C2=O)N(C)C(=O)[C@@H]2C[C@H](C)CN2C1=O — recorded pKd = 8.92

Entry CCO[C@@H]1C[C@H]2C(=O)NC3(CC(C)(C)C3)C(=O)N(C)[C@@H](C(CC)CC)C(=O)N(C)[C@H](C(=O)N(C)C)CC(=O)N(C)[C@@H](COC)C(=O)N[C@@H]([C@@H](C)CC)C(=O)N(C)CC(=O)N(C)[C@H]3C/C=C\CCN(C3=O)[C@@H](CC3CCCCC3)C(=O)N(C)CC(=O)N[C@@H](CCc3ccc(C(F)(F)F)c(Cl)c3)C(=O)N2C1 — recorded pKd = 8.89

---

Kd values by entry
assayed-system: GDP-bound KRAS wild-type protein (Homo sapiens)
measurement-notes: Binding to KRAS by surface plasmon resonance (SPR), Single Cycle Kinetics
condition-summary: SPR Single Cycle Kinetics, GDP-bound KRAS wild-type protein, 1:1 binding model; read-out: KRAS KD
Where a SMILES comes first, the peptide text is derived from it. Bridges are numbered along the chain shown (N, C = ends). [ ]: non-standard residue; d: D form. The star is where a group is joined. hPhe(3-Cl-4-CF3) = N[C@@H](CCc1ccc(C(F)(F)F)c(Cl)c1)C(=O)O; NPrPhe(4-CF3) = CCCN[C@@H](Cc1ccc(C(F)(F)F)cc1)C(=O)O; NMeGly(cPent) = CN[C@H](C(=O)O)C1CCCC1; NMeD = CN[C@@H](CC(=O)O)C(=O)O; NMeL = CN[C@@H](CC(C)C)C(=O)O; Morpholide = C1CN(*)CCO1; Ac5c = NC1(C(=O)O)CCCC1; NcPrGly = O=C(O)CNC1CC1; Sar = CNCC(=O)O
Answer in nM, number only, no unit symbol.

// known answers, use as guide
Response field Kd (GDP-bound KRAS wild-type protein (Homo sapiens)) for item CC[C@H](C)[C@@H]1NC(=O)[C@H](CC(C)C)N(C)C(=O)C[C@@H](C(=O)N2CCOCC2)N(C)C(=O)[C@H](C2CCCC2)N(C)C(=O)C2(CCC2)NC(=O)[C@]2(C)CCCN2C(=O)[C@H](CCc2cc(F)c(C(F)(F)F)c(F)c2)NC(=O)CN(C)C(=O)[C@H](Cc2ccc(C(F)(F)F)cc2)N2CCCC[C@@H](C2=O)N(C)C(=O)CN(C)C1=O [PP0808] : 0.027

Response field Kd (GDP-bound KRAS wild-type protein (Homo sapiens)) for item CC[C@H](C)[C@@H]1NC(=O)[C@H](CC(C)C)N(C)C(=O)C[C@@H](C(=O)N2CCOCC2)N(C)C(=O)[C@H](C2CCCC2)N(C)C(=O)C2(CCCC2)NC(=O)[C@@H]2CCCN2C(=O)[C@H](CCc2ccc(C(F)(F)F)c(Cl)c2)NC(=O)CN(C)C(=O)[C@H](Cc2ccc(C)cc2)N2CCCC[C@@H](C2=O)N(C)C(=O)CN(C)C1=O [PP0316] : 0.054

Attention now turns to another entry.
Response field Kd (GDP-bound KRAS wild-type protein (Homo sapiens)) for item CCCN1C(=O)CN(C)C(=O)CN(C2CC2)C(=O)[C@H]([C@@H](C)CC)NC(=O)[C@H](CC(C)C)N(C)C(=O)C[C@@H](C(=O)N2CCOCC2)N(C)C(=O)[C@H](C2CCCC2)N(C)C(=O)C2(CCCC2)NC(=O)[C@@H]2CCCN2C(=O)[C@H](CCc2ccc(C(F)(F)F)c(Cl)c2)NC(=O)CN(C)C(=O)[C@@H]1Cc1ccc(C(F)(F)F)cc1 [PP0252] ([NMeL]I[NcPrGly][Sar][NPrPhe(4-CF3)][Sar][hPhe(3-Cl-4-CF3)]P[Ac5c][NMeGly(cPent)][NMeD]-Morpholide; lactam N-11) : 0.34

---

assayed-system: GDP-bound KRAS wild-type protein (Homo sapiens, UniProt P01116)
measurement-notes: Binding to KRAS by surface plasmon resonance (SPR), Single Cycle Kinetics
condition-summary: SPR, Single Cycle Kinetics, GDP-bound KRAS wild-type protein; read-out: KRAS KD
measurement-kind: Kd (nM)
Answer in nM, number only, no unit symbol.

Entry CC[C@H](C)[C@@H]1NC(=O)[C@H](C(C)C)N(C)C(=O)C[C@@H](C(=O)N(C)CC)N(C)C(=O)[C@H](C2CCCC2)N(C)C(=O)C2(CC(C)(C)C2)NC(=O)[C@@H]2C[C@H](C)CN2C(=O)[C@H](CCc2cc(F)c(C(F)(F)F)c(F)c2)NC(=O)CN(C)C(=O)[C@H](Cc2ccc(C(F)(F)F)cc2)N2CC/C=C\C[C@@H](C2=O)N(C)C(=O)CN(C)C1=O [PP1976] — recorded Kd = 0.37

Entry CCC[C@@H]1C[C@H]2C(=O)NC3(CC(C)(C)C3)C(=O)N(C)[C@@H](C3CCCC3)C(=O)N(C)[C@H](C(=O)N(C)C)CC(=O)N(C)[C@@H](C)C(=O)N[C@@H]([C@@H](C)CC)C(=O)N(C)CC(=O)N(C)[C@H]3C/C=C\CCN(C3=O)[C@@H](Cc3ccc(C(F)(F)F)cc3)C(=O)N(C)CC(=O)N[C@@H](CCc3cc(F)c(C(F)(F)F)c(F)c3)C(=O)N2C1 [PP2273] — recorded Kd = 0.19

Entry CCOC[C@H]1C(=O)N[C@@H]([C@@H](C)CC)C(=O)N(C)CC(=O)N(C)[C@H]2C/C=C\CCN(C2=O)[C@@H](Cc2ccc(C)cc2)C(=O)N(C)CC(=O)N[C@@H](CCc2ccc(C(F)(F)F)c(OC)c2)C(=O)N2C[C@H](OCC)C[C@H]2C(=O)NC2(CC(C)(C)C2)C(=O)N(C)[C@@H](C2CCCC2)C(=O)N(C)[C@H](C(=O)N(CC)CC)CC(=O)N1C [PP2406] — recorded Kd = 0.29

---

assayed-system: GDP-bound KRAS wild-type protein (Homo sapiens, UniProt P01116)
measurement-notes: Binding to KRAS by surface plasmon resonance (SPR), Single Cycle Kinetics
condition-summary: SPR Single Cycle Kinetics, GDP-bound KRAS wild-type protein, 1:1 binding model; read-out: KRAS KD
*1 amine or outer side, *2 acyl side, *3 side chain or, on linkers, in order; H or OH if unused. Where a SMILES comes first, the peptide text is derived from it. Bridges are numbered along the chain shown (N, C = ends). [ ]: non-standard residue; d: D form. The star is where a group is joined. hPhe(3-Cl-4-CF3) = N[C@@H](CCc1ccc(C(F)(F)F)c(Cl)c1)C(=O)O; NPrPhe(4-CF3) = CCCN[C@@H](Cc1ccc(C(F)(F)F)cc1)C(=O)O; X30 = C=CCCN([C@@H](Cc1ccc(C)cc1)C(=O)[*:2])[*:1]; X10 = C=CCN([C@@H](Cc1ccc(C)cc1)C(=O)[*:2])[*:1]; NMeGly(cPent) = CN[C@H](C(=O)O)C1CCCC1; NMeAllylGly = C=CC[C@H](NC)C(=O)O; NMeD = CN[C@@H](CC(=O)O)C(=O)O; NMeL = CN[C@@H](CC(C)C)C(=O)O; Morpholide = C1CN(*)CCO1; NMeA = CN[C@@H](C)C(=O)O; Ac5c = NC1(C(=O)O)CCCC1; Aze = O=C(O)[C@@H]1CCN1; Ac4c = NC1(C(=O)O)CCC1; Sar = CNCC(=O)O
measurement-kind: Kd (nM)
Answer in nM, number only, no unit symbol.

// known answers, use as guide
Entry C=CCCN1C(=O)CN(C)C(=O)CN(C)C(=O)[C@H]([C@@H](C)CC)NC(=O)[C@H](CC(C)C)N(C)C(=O)C[C@@H](C(=O)N2CCOCC2)N(C)C(=O)[C@H](C2CCCC2)N(C)C(=O)C2(CCCC2)NC(=O)[C@@H]2CCCN2C(=O)[C@H](CCc2ccc(C(F)(F)F)c(Cl)c2)NC(=O)CN(C)C(=O)[C@@H]1Cc1ccc(C)cc1 [PP0101] ([NMeL]I[Sar][Sar][X30][Sar][hPhe(3-Cl-4-CF3)]P[Ac5c][NMeGly(cPent)][NMeD]-Morpholide; lactam N-11) — recorded Kd = 0.16

Entry CCCC[C@H]1C(=O)N[C@@H]([C@@H](C)CC)C(=O)N(C)CC(=O)N(C)[C@H]2C/C=C\CCN(C2=O)[C@@H](Cc2ccc(C)cc2)C(=O)N(C)CC(=O)N[C@@H](CCc2cc(F)c(C(F)(F)F)c(F)c2)C(=O)N2C[C@H](OCC)C[C@H]2C(=O)NC2(CCC2)C(=O)N(C)[C@@H](C2CCCC2)C(=O)N(C)[C@H](C(=O)N(C)C)CC(=O)N1C — recorded Kd = 0.075

Entry C=CC[C@H]1C(=O)N(CC=C)[C@@H](Cc2ccc(C)cc2)C(=O)N(C)CC(=O)N[C@@H](CCc2ccc(C(F)(F)F)c(Cl)c2)C(=O)N2CCC[C@H]2C(=O)NC2(CCCC2)C(=O)N(C)[C@@H](C2CCCC2)C(=O)N(C)[C@H](C(=O)N2CCOCC2)CC(=O)N(C)[C@@H](CC(C)C)C(=O)N[C@@H]([C@@H](C)CC)C(=O)N(C)CC(=O)N1C [PP0139] ([NMeL]I[Sar][NMeAllylGly][X10][Sar][hPhe(3-Cl-4-CF3)]P[Ac5c][NMeGly(cPent)][NMeD]-Morpholide; lactam N-11) — recorded Kd = 230

Entry CC[C@H](C)[C@@H]1NC(=O)[C@H](CC(C)C)N(CC)C(=O)C[C@@H](C(=O)N2CCOCC2)N(C)C(=O)[C@H](C2CCCC2)N(C)C(=O)C2(CCCC2)NC(=O)[C@@H]2CCCN2C(=O)[C@H](CCc2cc(F)c(C(F)(F)F)c(F)c2)NC(=O)CN(C)C(=O)[C@H](Cc2ccc(C(F)(F)F)cc2)N2CCCCC[C@@H](C2=O)N(C)C(=O)CN(C)C1=O — recorded Kd = 6.2

Attention now turns to another entry.
Entry CCCN1C(=O)[C@@H]2CCN2C(=O)[C@H](C)N(C)C(=O)[C@H]([C@@H](C)CC)NC(=O)[C@H](CC(C)C)N(C)C(=O)C[C@@H](C(=O)N2CCOCC2)NC(=O)[C@H](C2CCCC2)N(C)C(=O)C2(CCC2)NC(=O)[C@@H]2CCCN2C(=O)[C@H](CCc2ccc(C(F)(F)F)c(Cl)c2)NC(=O)CN(C)C(=O)[C@@H]1Cc1ccc(C(F)(F)F)cc1 [PP0344] ([NMeL]I[NMeA][Aze][NPrPhe(4-CF3)][Sar][hPhe(3-Cl-4-CF3)]P[Ac4c][NMeGly(cPent)]D-Morpholide; lactam N-11) — recorded Kd = 1.1
